# System: CD2F1 mice, L1210 leukemia ip, survival T/C
# protocol_summary: NCI In Vivo Anticancer Drug Screen. Data for tumor model L1210 Leukemia (intraperitoneal) in CD2F1 (CDF1) mice
# test_context: endpoint: mean survival time; dose: 200.0 mg/kg/injection; schedule: Q01DX005 (ip); vehicle: water
Toxic doses and inconclusive results are not listed. The calls were made as follows: active = survival T/C of 150% or more; inactive = T/C below 125% in these data.
Please state which outcome applies, choosing from class 1 (active), class 0 (inactive)

Observe how each entry below is paired with its result.
# molecule, group
records = [
    ("COC1OC(CO)C(n2cnc3c2c(=O)n(C)c(=O)n3C)C=C1NC(C)=O (centres undefined)", "class 0"),
    ("NC(=O)c1csc(C2OC(COP(=O)(O)O)C(O)C2O)n1 (centres undefined)", "class 1"),
    ("CC(=O)Nc1cc(Cl)c2ncn(C3OC(CO)C(O)C3O)c2n1 (centres undefined)", "class 0"),
]

Now consider the entry below.
*Q* Hi, sorry to bother you, what did the test record for CC(=O)N(c1nc(Cl)c2cc[nH]c2n1)C1OC(CO)C(O)C1O (centres undefined) ?
*A* class 0
